# Test system: HeLa cells
# Method Summary: Compound screen by flow cytometry: HeLa cell count as surrogate readout of cell viability (z-scoreHeLa); note: test concentration or dose not given here
# Assay type: cell-based, human
# Run Conditions: human
Provide the reported cell count rep 2 of each item.

CCN(CC)CCOc1ccc(Nc2ncc3cc(-c4c(Cl)cccc4Cl)c(=O)n(C)c3n2)cc1 | 949
Cc1ccc(O)cc1Nc1ccnc2ccc(S(C)(=O)=O)cc12 [GW559768X] | 35205
COc1cc2c(Nc3ccc(NC(=O)c4ccccc4)cc3)ncnc2cc1OCCCN1CCOCC1 [GSK301329A] | 4052

--- query ---
Prompt line: So what cell count rep 2 did O=C1Nc2ccc(I)cc2C1=Cc1cc(Br)c(O)c(Br)c1 [GW305074X] get with HeLa cells?
Response line: 1814

* * *

# System: HeLa cells
# Method Summary: Compound screen by flow cytometry: HeLa cell count as surrogate readout of cell viability (z-scoreHeLa); note: test concentration or dose not given here
# Assay type: cell-based, human
# Run Conditions: PKIS compound screen raw data, HeLa cell count, replicate 2
For each record, write down the corresponding cell count rep 2.
Answers are plain numbers.

COc1cc(Nc2ccnc3ccc(C(F)(F)F)cc23)cc(OC)c1OC [GW577382X] | 2336
Cc1cc(O)cc(C)c1/C=C/c1cncc(C(N)=O)c1 [GW435821X] | 26110

Now turn to the next molecule.
Prompt line: State the recorded cell count rep 2 for this entry: [O-][S+]1CCN(Cc2ccc(-c3ccc4ncnc(Nc5ccc(OCc6cccc(F)c6)c(Cl)c5)c4c3)o2)CC1 [GW576609A]
Response line: 36007

* * *

# Test system: HeLa cells
# Method Summary: Compound screen by flow cytometry: HeLa cell count as surrogate readout of cell viability (z-scoreHeLa); note: test concentration or dose not given here
# Assay type: cell-based, human
# Run Conditions: PKIS compound screen raw data, HeLa cell count, replicate 3
Assignment: determine reported cell count rep 3 for the given molecules.
Numbers only.

Worked examples follow.
O=C(Nc1ccccc1F)NC1CCN(c2ccnc(Nc3ccc(F)cc3)n2)C1 (centres unmarked) [GSK1379722A] | 43503
Cc1nn2c(=O)cc(N3CCOCC3)nc2n1Cc1cccc(Cl)c1Cl [GSK2342769A] | 21902
NC(=O)c1cccc(Nc2nccc(Nc3ccc(Oc4cccc(Cl)c4)c(Cl)c3)n2)c1 [GW659008A] | 42387
COc1cc(Nc2nccc(N3CCC(NC(=O)Nc4ccc5c(c4)OCO5)C3)n2)cc(OC)c1OC (centres unmarked) [GSK1379766A] | 37841
O=C(NCCNc1ccnc(Nc2ccc(F)cc2)n1)Nc1ccccc1F [GSK1379880A] | 6039

// each molecule listed below needs its cell count rep 3
1. COC(=O)Nc1nc2ccc(Oc3ccc(NC(=O)Nc4cc(C(F)(F)F)ccc4F)cn3)cc2[nH]1 [GW681170A]
2. Cn1cncc1-c1cc2c(Nc3ccc(OCc4ccccc4)cc3)ncnc2cn1 [GW281179X]
3. COc1ccc(Nc2nccc(N3CCC(NC(=O)c4cc5ccccc5s4)C3)n2)cc1 (centres unmarked) [GSK1379738A]

Response line:
1. 6470
2. 11278
3. 42431

* * *

# System: HeLa cells
# Method Summary: Compound screen by flow cytometry: HeLa cell count as surrogate readout of cell viability (z-scoreHeLa); note: test concentration or dose not given here
# Assay type: cell-based, human
# Run Conditions: PKIS compound screen raw data, HeLa cell count, replicate 1
Response field class: string, computed from recorded cell count rep 1 by ranges L (below 10000), M (10000 to below 30000), H (30000 or more)

Below, 5 molecules whose answers are already recorded.
NCCCC(NC(=O)c1cc(Br)c(-c2ccnc3[nH]ccc23)s1)c1ccccc1 (stereo not shown) [GSK1287544A] | L
COc1ccc(Nc2nccc(-c3ccc(NC(=O)c4cc5cc(F)ccc5[nH]4)cc3)n2)cc1 [GSK1229496A] | L
c1ccc(-c2n[nH]cc2Nc2ccnc3ccccc23)nc1 [GW694077X] | M
O=C1Nc2ccc(-c3cccnc3)cc2C1=Cc1cc(Br)c(O)c(Br)c1 [GW429374A] | M
Nc1nccc2scc(-c3ccc4c(c3)CCN4C(=O)Cc3ccccc3)c12 [GSK2576924A] | L

Prompt line: Which of the defined bands does the recorded cell count rep 1 of Cc1nn2c(=O)cc(N3CCOCC3)nc2n1Cc1cccc(Cl)c1Cl [GSK2342769A] sit within?
Response line: H

Prompt line: Categorize the following entry: Cc1c(Cn2ccn3c(=O)cc(N4CCOCC4)nc23)cccc1C(F)(F)F [GSK2289044B]
Response line: M

Prompt line: Just checking, what class would you give Cc1cc(-c2ccc3c(c2)CC[C@@H](N[C@@H](C)c2ccccc2)C3)cnc1N [GW412617A] here?
Response line: H

Prompt line: Pick a category. Item: COc1ccc(Nc2nccc(N3CCC(NC(=O)Nc4cccc(C(C)=O)c4)C3)n2)cc1 (stereo not shown) [GSK1379731A]
Response line: H

Prompt line: Bin this entry: O=C(Nc1ccc(Oc2ccc3nc(NC(=O)c4ccco4)[nH]c3c2)cc1)Nc1cc(C(F)(F)F)ccc1F [GW683134A]
Response line: M

Prompt line: Could you tell me which band O=C(O[C@H]1CN[C@H](C#Cc2cc3ncnc(Nc4ccc5c(cnn5Cc5ccccc5)c4)c3s2)C1)N1CCOCC1 [GSK200398A] belongs to?
Response line: M

Prompt line: Which class does "CN(C)CCOc1ccc(-c2cc(-c3ccc(Cl)c(O)c3)c(-c3ccncc3)[nH]2)cc1.Cl.Cl" fall in?
Response line: L

Prompt line: Tag the class for CC(C)c1nc(-c2cccc(NS(=O)(=O)c3c(F)cccc3F)c2)c(-c2ccnc(Nc3ccc(N4CCOCC4)nc3)n2)s1 [GSK1723980B]
Response line: L

Prompt line: # bin label for CS(=O)(=O)CCNCc1cc(-c2cc3c(Nc4ccc(OCc5cccc(F)c5)c(Cl)c4)ncnc3s2)cs1 [GSK300014A]
Response line: M

* * *

# Test system: HeLa cells
# Method Summary: Compound screen by flow cytometry: HeLa cell count as surrogate readout of cell viability (z-scoreHeLa); note: test concentration or dose not given here
# Assay type: cell-based, human
# Run Conditions: PKIS compounds raw data; replicate 3; HeLa cell count
Observable: cell count rep 3
One number for each entry.

Reference set, count: 10
Cn1cc(-c2ccc3c(c2)CCN3C(=O)Cc2cccc(F)c2)c2c(N)ncnc21 [GSK2603358A] | 8427
Cc1ccc2c(c1)C(=NNc1ccc(S(N)(=O)=O)cc1)C(=O)N2 [GW275944X] | 6627
Cc1nc(-c2ccccc2)n2nc(NCCCN3CCOCC3)ncc12 [GW874091X] | 6390
COC(=O)c1cccc(NC(=O)NC2CCN(c3ccnc(NCc4ccc(F)cc4)n3)CC2)c1 [GSK1379860A] | 4200
COc1cccc(-n2ncc3c(N/N=C/c4ccncc4)ncnc32)c1 [GW784752X] | 8225
COc1cc(C=NNc2ncnc3c2cnn3-c2ccccc2)ccc1O [GW513184X] | 7463
Cc1cc(Cl)cc2c1NC(=O)C2=NNc1ccc(S(N)(=O)=O)cc1 [GW279320X] | 10033
Cc1nnc(-c2ccc(C)c(-c3ccc(C(=O)NCc4ccc(Cl)cc4)cc3)c2)o1 [GW708893X] | 7607
CN(C)C(=O)O[C@@H]1CN[C@@H](C#Cc2cc3ncnc(Nc4ccc(OCc5cccc(F)c5)c(Cl)c4)c3s2)C1 [GSK238063A] | 4546
CCn1cc(-c2ccnc3[nH]ccc23)c(-c2cccc(NC(=O)Nc3ccc(OCc4ccccc4)cc3)c2)n1 [GSK718429A] | 4945

Provide reported cell count rep 3 for each item, in the same order as listed.
1. Cc1nnc(-c2ccc(C)c(-c3ccc(C(=O)Nc4ccc(NS(C)(=O)=O)cc4)cc3)c2)o1 [GW702865X]
2. O=S(=O)(CCNCc1ccc(-c2ccc3ncnc(Nc4ccc(OCc5cccc(F)c5)c(Cl)c4)c3c2)o1)c1ccccc1 [GW633459A]
3. Cc1ccc(C(=O)Nc2ccc(Nc3ccnc4cc(-c5nccs5)ccc34)cc2O)cc1 [GW494702A]
4. CCCNC(=O)Nc1ccc(N(C)c2ccnc(NC3CC3)n2)cc1 [GW818933X]

Response line:
[6358, 9893, 7965, 6744]

Consider the following items and state reported cell count rep 3 for each.
1. c1ccc(Oc2ccc(Nc3ccnc4cc(-c5ccc(CNCCN6CCOCC6)o5)ccc34)cc2)nc1 [GW567145X]
2. COc1cc(Nc2ncc(-c3ccccc3)o2)cc(OC)c1OC [GW627512B]
3. c1ccc(Cc2nc3ccc(Nc4ncnc5ccccc45)cc3[nH]2)cc1 [GR269666A]

Response line:
[5085, 4653, 7830]

* * *

# Test system: intracellular MRSA; note: test concentration or dose not given here
# Format: cell-based, Staphylococcus aureus
# Run Conditions: PKIS compound screen, MRSA-infected HeLa cells, replicate 1
Please mark TRUE if the recorded z-scoreMRSA+ rep 1 is equal to or greater than 0.1, and FALSE if it falls below.

O=C(O[C@H]1CN[C@H](C#Cc2cc3ncnc(Nc4ccc5c(cnn5Cc5ccccc5)c4)c3s2)C1)N1CCOCC1 [GSK200398A] | FALSE
CCS(=O)(=O)c1ccc(OC)c(Nc2nccc(N(C)c3ccc4c(C)n[nH]c4c3)n2)c1 [GW654652C] | FALSE
Cc1cc(NCC(c2ccccc2)c2ccccc2)nc(NCc2ccc(C(F)(F)F)cc2)n1 [GW497681X] | TRUE
COc1cc(Nc2nccc(N3CCC(NC(=O)Nc4cccc(C(C)=O)c4)C3)n2)cc(OC)c1OC (centres unmarked) [GSK1379753A] | TRUE
Cc1ccccc1CC(=O)N1CCc2cc(-c3cn(C)c4ncnc(N)c34)ccc21 [GSK2603346A] | TRUE

Prompt line: Please tell me: is the molecule CS(=O)(=O)CCNCc1ccc(-c2ccc3ncnc(Nc4ccc(OCc5ccccc5)c(Cl)c4)c3c2)o1 [GW574783B] at or over 0.1 in terms of z-scoreMRSA+ rep 1?
Response line: FALSE

Prompt line: # check: z-scoreMRSA+ rep 1 of Cc1ccc(NC(=O)c2ccc(Cl)cc2)cc1-c1ccc(C(=O)Nc2ccncc2)cc1 [GSK1398467A] is greater than or equal to 0.1
Response line: FALSE

Prompt line: Evaluate COc1ccc(COc2ccc(Cc3cnc(N)nc3N)cc2OC)cc1 [GW632580X] : z-scoreMRSA+ rep 1 at minimum 0.1?
Response line: TRUE

# credit: paper PMC10999543
